# IC50 per record follows
# System: Candida albicans
# measurement.notes: Inhibition of biofilm formation of Candida albicans ATCC 90028 after 48 hrs by XTT assay
# Type: functional, organism-based
# measurement.conditions: ATCC 90028, 48 h
Number only, in µM; omit the unit.

                                   compound  readout_kind  measurement_units  recorded_value
0  CC(Cn1cnc2c1c(=O)n(C)c(=O)n2C)OCc1cn(CCCn2nc3c(Br)c(Br)c(Br)c(Br)c3n2)nn1 (configuration not stated)          IC50                 µM              20

Exercise: What value of IC50 has been recorded for this entry: CC(CN1c2ccccc2Sc2ccccc21)OC(=O)OC(C)Cn1cnc2c1c(=O)n(C)c(=O)n2C (configuration not stated)
Solution: 248

* * *

# System: CCRF-CEM
# measurement.notes: Antiproliferative activity against human CCRF-CEM cells assessed as cell viability at 200 uM after 72 hrs by MTT assay
# Type: functional
# measurement.conditions: read-out: Activity
readout.kind: viability at 200 µM (%)
Number only, in %; omit the unit.

>>> print(df.to_string())
                                   compound         readout_kind  recorded_value
0  CC(Cn1cnc2c1c(=O)n(C)c(=O)n2C)OC(=O)N1c2ccccc2C=Cc2ccccc21 (configuration not stated)  viability at 200 µM            23.4
1  CC(Cn1cnc2c1c(=O)n(C)c(=O)n2C)OC(=O)Sc1ccccc1 (configuration not stated)  viability at 200 µM             0.5
2  CC(Cn1cnc2c1c(=O)n(C)c(=O)n2C)OC(=O)C1c2ccccc2-c2ccccc21 (configuration not stated)  viability at 200 µM             2.3
3  CC(Cn1cnc2c1c(=O)n(C)c(=O)n2C)OC(=O)C(c1ccccc1)c1ccccc1 (configuration not stated)  viability at 200 µM             2.5
4  Cc1ccc(C(=O)CC(=O)OC(C)Cn2cnc3c2c(=O)n(C)c(=O)n3C)cc1 (configuration not stated)  viability at 200 µM            31.6
5  CC(CN1c2ccccc2Sc2ccccc21)OC(=O)OC(C)Cn1cnc2c1c(=O)n(C)c(=O)n2C (configuration not stated)  viability at 200 µM               0
6  COC(C(=O)OC(C)Cn1cnc2c1c(=O)n(C)c(=O)n2C)c1ccc(C(C)(C)C)cc1 (configuration not stated)  viability at 200 µM               0
7  CC(Cn1cnc2c1c(=O)n(C)c(=O)n2C)OC(=O)N1c2ccccc2Sc2ccccc21 (configuration not stated)  viability at 200 µM            47.1

Exercise: What value of viability at 200 µM has been recorded for this entry: CC(Cn1cnc2c1c(=O)n(C)c(=O)n2C)OC(=O)CC(=O)c1ccc(F)cc1 (configuration not stated)
Solution: 20.1

Exercise: What value of viability at 200 µM has been recorded for this entry: CC(Cn1cnc2c1c(=O)n(C)c(=O)n2C)OCc1cn(CCCn2cnc3c(Br)c(Br)c(Br)c(Br)c32)nn1 (configuration not stated)
Solution: 0

Exercise: What value of viability at 200 µM has been recorded for this entry: COC(C(=O)OC(C)Cn1cnc2c1c(=O)n(C)c(=O)n2C)c1ccc2ccccc2c1 (configuration not stated)
Solution: 15

Exercise: What value of viability at 200 µM has been recorded for this entry: Brc1c(Br)c(Br)c2[nH]cnc2c1Br
Solution: 0

Exercise: What value of viability at 200 µM has been recorded for this entry: CC(Cn1cnc2c1c(=O)n(C)c(=O)n2C)OCc1cn(CCCn2nc3c(Br)c(Br)c(Br)c(Br)c3n2)nn1 (configuration not stated)
Solution: 0

* * *

# System: Candida albicans
# measurement.notes: Growth inhibition of Candida albicans ATCC 90028 at 16 ug/ml incubated for 18 hrs at 35 degC by broth microdilution method relative to control
# Assay type: functional
# measurement.conditions: ATCC 90028, 18 h, read-out: GI
readout.kind: inhibition of growth at 16 µg/mL (%)
Number only, in %; omit the unit.

Record excerpt, results attached:
>>> print(df.to_string())
                                   compound  recorded_value
0  CC(Cn1cnc2c1c(=O)n(C)c(=O)n2C)OC(=O)Nc1ccccc1 (centres undefined)             100
1  CC(Cn1cnc2c1c(=O)n(C)c(=O)n2C)OCc1cn(-c2cccc3ccccc23)nn1 (centres undefined)            99.6
2  CC(CN1c2ccccc2Sc2ccccc21)OC(=O)OC(C)Cn1cnc2c1c(=O)n(C)c(=O)n2C (centres undefined)             100
3  COC(C(=O)OC(C)Cn1cnc2c1c(=O)n(C)c(=O)n2C)c1ccc2ccccc2c1 (centres undefined)            99.2
4  CC(Cn1cnc2c1c(=O)n(C)c(=O)n2C)OC(=O)Sc1ccccc1 (centres undefined)            99.8
5  CC(Cn1cnc2c1c(=O)n(C)c(=O)n2C)OC(=O)CC(=O)c1ccc(F)cc1 (centres undefined)             100
6  CC(Cn1cnc2c1c(=O)n(C)c(=O)n2C)OC(=O)C1c2ccccc2-c2ccccc21 (centres undefined)            99.8
7  Cc1ccc(C(=O)CC(=O)OC(C)Cn2cnc3c2c(=O)n(C)c(=O)n3C)cc1 (centres undefined)             100

Please look at the following compound next.
Exercise: What value of inhibition of growth at 16 µg/mL has been recorded for this entry: COC(C(=O)OC(C)Cn1cnc2c1c(=O)n(C)c(=O)n2C)c1cccc2ccccc12 (centres undefined)
Solution: 99.8

* * *

# inhibition of growth at 0.125 µg/mL per record follows
# Tested on: Candida albicans
# measurement.notes: Growth inhibition of Candida albicans ATCC 90028 at 0.125 ug/ml incubated for 4 hrs at 35 degC by broth microdilution method relative to control
# Type: functional
# measurement.conditions: ATCC 90028, 4 h, read-out: GI
Number only, in %; omit the unit.

>>> print(df.to_string())
                                   compound                         readout_kind  recorded_value
0  COC(C(=O)OC(C)Cn1cnc2c1c(=O)n(C)c(=O)n2C)c1ccc(C(C)(C)C)cc1 (stereo not given)  inhibition of growth at 0.125 µg/mL            99.2

Exercise: Requested read-out inhibition of growth at 0.125 µg/mL, target or system Candida albicans, entry CC(Cn1cnc2c1c(=O)n(C)c(=O)n2C)OC(=O)C1c2ccccc2-c2ccccc21 (stereo not given)
Solution: 98.9

Exercise: Requested read-out inhibition of growth at 0.125 µg/mL, target or system Candida albicans, entry CC(Cn1cnc2c1c(=O)n(C)c(=O)n2C)OCc1cn(CCCn2nc3c(Br)c(Br)c(Br)c(Br)c3n2)nn1 (stereo not given)
Solution: 99

Exercise: Requested read-out inhibition of growth at 0.125 µg/mL, target or system Candida albicans, entry CC(Cn1cnc2c1c(=O)n(C)c(=O)n2C)OC(=O)N1c2ccccc2C=Cc2ccccc21 (stereo not given)
Solution: 99.7

Exercise: Requested read-out inhibition of growth at 0.125 µg/mL, target or system Candida albicans, entry CC(Cn1cnc2c1c(=O)n(C)c(=O)n2C)OC(=O)Nc1ccccc1 (stereo not given)
Solution: 99.3

Exercise: Requested read-out inhibition of growth at 0.125 µg/mL, target or system Candida albicans, entry COC(C(=O)OC(C)Cn1cnc2c1c(=O)n(C)c(=O)n2C)c1ccc2ccccc2c1 (stereo not given)
Solution: 99

Exercise: Requested read-out inhibition of growth at 0.125 µg/mL, target or system Candida albicans, entry CC(Cn1cnc2c1c(=O)n(C)c(=O)n2C)OC(=O)CC(=O)c1ccc(F)cc1 (stereo not given)
Solution: 99.5

* * *

# inhibition of growth at 4 µg/mL per record follows
# Test system: Candida albicans
# measurement.notes: Growth inhibition of Candida albicans ATCC 90028 at 4 ug/ml incubated for 18 hrs at 35 degC by broth microdilution method relative to control
# Assay type: functional
# measurement.conditions: ATCC 90028, 18 h, read-out: GI
Number only, in %; omit the unit.

Record excerpt, results attached:
                                   compound                     readout_kind  recorded_value
0  CC(CN1c2ccccc2Sc2ccccc21)OC(=O)OC(C)Cn1cnc2c1c(=O)n(C)c(=O)n2C (stereo unspecified)  inhibition of growth at 4 µg/mL             100
1  CC(Cn1cnc2c1c(=O)n(C)c(=O)n2C)OC(=O)Nc1ccccc1 (stereo unspecified)  inhibition of growth at 4 µg/mL            99.7
2  CC(Cn1cnc2c1c(=O)n(C)c(=O)n2C)OC(=O)N1c2ccccc2Sc2ccccc21 (stereo unspecified)  inhibition of growth at 4 µg/mL            99.9
3  CC(Cn1cnc2c1c(=O)n(C)c(=O)n2C)OC(=O)CC(=O)c1ccccc1 (stereo unspecified)  inhibition of growth at 4 µg/mL            99.2
4  COC(C(=O)OC(C)Cn1cnc2c1c(=O)n(C)c(=O)n2C)c1ccc(C(C)(C)C)cc1 (stereo unspecified)  inhibition of growth at 4 µg/mL            99.9
5  CC(Cn1cnc2c1c(=O)n(C)c(=O)n2C)OCc1cn(CCCn2nc3c(Br)c(Br)c(Br)c(Br)c3n2)nn1 (stereo unspecified)  inhibition of growth at 4 µg/mL             100
6  CC(Cn1cnc2c1c(=O)n(C)c(=O)n2C)OC(=O)Sc1ccccc1 (stereo unspecified)  inhibition of growth at 4 µg/mL            99.8
7  CC(Cn1cnc2c1c(=O)n(C)c(=O)n2C)OC(=O)C1c2ccccc2-c2ccccc21 (stereo unspecified)  inhibition of growth at 4 µg/mL             100

Exercise: What value of inhibition of growth at 4 µg/mL has been recorded for this entry: CC(Cn1cnc2c1c(=O)n(C)c(=O)n2C)OC(=O)N1c2ccccc2C=Cc2ccccc21 (stereo unspecified)
Solution: 100

Exercise: What value of inhibition of growth at 4 µg/mL has been recorded for this entry: Cc1ccc(C(=O)CC(=O)OC(C)Cn2cnc3c2c(=O)n(C)c(=O)n3C)cc1 (stereo unspecified)
Solution: 100

Exercise: What value of inhibition of growth at 4 µg/mL has been recorded for this entry: CC(Cn1cnc2c1c(=O)n(C)c(=O)n2C)OC(=O)CC(=O)c1ccc(F)cc1 (stereo unspecified)
Solution: 100

Exercise: What value of inhibition of growth at 4 µg/mL has been recorded for this entry: COC(C(=O)OC(C)Cn1cnc2c1c(=O)n(C)c(=O)n2C)c1cccc2ccccc12 (stereo unspecified)
Solution: 99.5

Exercise: What value of inhibition of growth at 4 µg/mL has been recorded for this entry: CC(Cn1cnc2c1c(=O)n(C)c(=O)n2C)OCc1cn(-c2cccc3ccccc23)nn1 (stereo unspecified)
Solution: 99.8

Exercise: What value of inhibition of growth at 4 µg/mL has been recorded for this entry: CC(Cn1cnc2c1c(=O)n(C)c(=O)n2C)OC(=O)C(c1ccccc1)c1ccccc1 (stereo unspecified)
Solution: 100

Exercise: What value of inhibition of growth at 4 µg/mL has been recorded for this entry: CC(Cn1cnc2c1c(=O)n(C)c(=O)n2C)OCc1cn(CCCn2cnc3c(Br)c(Br)c(Br)c(Br)c32)nn1 (stereo unspecified)
Solution: 99.9

Exercise: What value of inhibition of growth at 4 µg/mL has been recorded for this entry: COC(C(=O)OC(C)Cn1cnc2c1c(=O)n(C)c(=O)n2C)c1ccc2ccccc2c1 (stereo unspecified)
Solution: 99
